From: patent US20260130395A1

Provide the recorded Stability of Plant-Derived Cannabinoid Compounds in Powder Concentrate for the entries that follow.
Test: Stability of cannabinoid entourage and Vitamin E components of the powder concentrate by LCMSMS
Type: physicochemical
Conditions: powder stored at 21-25° C.; 210 days
State the answer as a number, implicitly in mg/g powder.

Look up and report measured Stability of Plant-Derived Cannabinoid Compounds in Powder Concentrate for this entry: C=C(C)[C@@H]1CCC(C)=C[C@H]1c1c(O)cc(CCC)cc1O
0.049

Look up and report measured Stability of Plant-Derived Cannabinoid Compounds in Powder Concentrate for this entry: C=C(C)[C@@H]1CCC(C)=C[C@H]1c1c(O)cc(CCCCC)c(C(=O)O)c1O
0.427

Look up and report measured Stability of Plant-Derived Cannabinoid Compounds in Powder Concentrate for this entry: CCCCCc1cc(O)c2c(c1)OC(C)(CCC=C(C)C)C=C2 (stereo not drawn)
0.072

Look up and report measured Stability of Plant-Derived Cannabinoid Compounds in Powder Concentrate for this entry: CCCCCc1cc(O)c2c(c1)OC(C)(C)[C@@H]1CCC(C)=C[C@@H]21 [D9 THC, delta-9-tetrahydrocannabinol, reference compound]
2.54

Look up and report measured Stability of Plant-Derived Cannabinoid Compounds in Powder Concentrate for this entry: CCCCCc1cc(O)c2c(c1)OC(C)(C)c1ccc(C)cc1-2
0.501

Look up and report measured Stability of Plant-Derived Cannabinoid Compounds in Powder Concentrate for this entry: CCCCCc1cc(O)c2c(c1)OC1(C)CCC3C1C2C3(C)C (stereo not drawn)
0.052

* * *

Provide the recorded Stability of Plant-Derived Cannabinoid Compounds in AB White, 8° C. for the entries that follow.
Test: Stability of cannabinoid compounds and Vitamin E components in Beverage 1 (AB White) by LCMSMS
Type: physicochemical
Details: AB White stored at 8° C.; 16 days
State the answer as a number, implicitly in µg/mL.

Look up and report measured Stability of Plant-Derived Cannabinoid Compounds in AB White, 8° C. for this entry: CCCCCc1cc2c(c(O)c1C(=O)O)[C@@H]1C=C(C)CC[C@H]1C(C)(C)O2 [D9 THCA, delta-9-tetrahydrocannabinolic acid]
0.932

Look up and report measured Stability of Plant-Derived Cannabinoid Compounds in AB White, 8° C. for this entry: CCCCCc1cc(O)c2c(c1)OC1(C)CCC3C1C2C3(C)C (stereo not drawn)
0.546

Look up and report measured Stability of Plant-Derived Cannabinoid Compounds in AB White, 8° C. for this entry: C=C(C)[C@@H]1CCC(C)=C[C@H]1c1c(O)cc(CCCCC)cc1O [CBD, cannabidiol, reference compound]
28.04

Look up and report measured Stability of Plant-Derived Cannabinoid Compounds in AB White, 8° C. for this entry: CCCCCc1cc(O)c2c(c1)OC(C)(CCC=C(C)C)C=C2 (stereo not drawn)
0.320

Look up and report measured Stability of Plant-Derived Cannabinoid Compounds in AB White, 8° C. for this entry: CCCc1cc(O)c2c(c1)OC(C)(C)[C@@H]1CCC(C)=C[C@@H]21 [THCV, delta-9-tetrahydrocannabivarin]
3.57

Look up and report measured Stability of Plant-Derived Cannabinoid Compounds in AB White, 8° C. for this entry: CCCCCc1cc(O)c2c(c1)OC(C)(C)[C@@H]1CCC(C)=C[C@@H]21 [D9 THC, delta-9-tetrahydrocannabinol, reference compound]
12.18
